target: N-terminally GST-tagged human full length recombinant Mps-1 kinase (Homo sapiens); construct: N-terminally GST-tagged human full length recombinant Mps-1 kinase; purchased Invitrogen, Karslruhe, Germany PV4071; assay: Mps-1 kinase assay (TR-FRET); format: biochemical; settings: Mps1 IC50 [nM], 10 μM ATP, 1 μM peptide substrate, 60 min at 22° C.
Sequence (P33981 whole entry): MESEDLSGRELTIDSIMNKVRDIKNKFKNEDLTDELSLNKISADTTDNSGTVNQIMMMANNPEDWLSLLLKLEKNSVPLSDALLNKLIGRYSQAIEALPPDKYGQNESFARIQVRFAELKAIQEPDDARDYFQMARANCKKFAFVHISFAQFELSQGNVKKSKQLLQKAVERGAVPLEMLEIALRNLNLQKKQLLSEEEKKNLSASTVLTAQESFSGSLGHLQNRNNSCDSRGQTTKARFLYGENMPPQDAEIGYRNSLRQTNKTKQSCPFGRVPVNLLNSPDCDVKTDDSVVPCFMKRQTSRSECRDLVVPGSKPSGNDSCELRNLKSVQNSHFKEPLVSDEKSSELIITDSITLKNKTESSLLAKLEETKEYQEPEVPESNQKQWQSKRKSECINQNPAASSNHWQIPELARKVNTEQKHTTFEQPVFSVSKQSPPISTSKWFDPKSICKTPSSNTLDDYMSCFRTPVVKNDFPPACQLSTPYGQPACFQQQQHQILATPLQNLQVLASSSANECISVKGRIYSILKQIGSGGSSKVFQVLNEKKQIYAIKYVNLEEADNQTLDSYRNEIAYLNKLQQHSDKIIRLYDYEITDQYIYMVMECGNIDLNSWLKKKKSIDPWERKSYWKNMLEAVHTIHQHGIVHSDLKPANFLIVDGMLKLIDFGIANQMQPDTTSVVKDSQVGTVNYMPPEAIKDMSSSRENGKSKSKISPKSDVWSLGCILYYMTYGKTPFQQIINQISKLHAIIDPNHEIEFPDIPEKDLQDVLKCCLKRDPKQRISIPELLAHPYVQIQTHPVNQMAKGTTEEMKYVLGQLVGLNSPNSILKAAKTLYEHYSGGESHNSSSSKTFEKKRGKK
Measurement Name: IC50 (nM)

Compound: Cc1cc(-c2cnc3c(NCC(C)(C)O)cc(Nc4cc(F)cc(F)c4)nn23)ccc1C(=O)NC1CC1
Units Symbol: nM
IC50: 1

[a] CCNC(=O)c1ccc(-c2cnc3c(NCC4CCOCC4)cc(Oc4cc(F)ccc4C)nn23)cc1C
[b] COc1cc(C(=O)NC2CC2)ccc1-c1cnc2c(NCCC(F)(F)F)cc(-c3ccccc3CO)nn12
[c] Cc1cc(-c2cnc3c(NCC4CCS(=O)(=O)CC4)cc(Oc4ccc(Cl)cc4)nn23)ccc1C(=O)NC1CC1 [Example 294A]
## Task Sort low-to-high on IC50, please. API: response body holds the labels in the requested order.
## Result c, a, b

Cited source: patent US9255100B2
